Cited source: PubChem BioAssay (NCI)

This section presents molecules with their documented TGI values.
Tested on: M19-MEL melanoma
ASSAY_TEXT: NCI tumour cell line growth inhibition, 48 h

These solved cases illustrate the format of a correct answer.
[[record]]
molecule = "CCCC(S(=O)(=O)c1ccccc1)S(=O)(=O)c1ccccc1"
result = "> 100 µM"

[[record]]
molecule = "c1cc(-c2cn3c(n2)SCC3)ccn1"
result = "> 100 µM"

[[record]]
molecule = "CC(C)(C)c1cc2nc(c1)C(C(F)(F)F)(C(F)(F)F)OB(Br)OC2(C(F)(F)F)C(F)(F)F"
result = "12.2 µM"

[[record]]
molecule = "O=Cc1ccc2c(c1I)OCO2"
result = "> 100 µM"

[[record]]
molecule = "O=C1C=C(O)C(=Cc2c(O)cc(O)cc2O)C(O)=C1"
result = "> 100 µM"

[[record]]
molecule = "COc1ccc(-c2[nH]c3ccccc3c2CCNS(=O)(=O)c2ccc(C)cc2)cc1"
result = "> 10 µM"

[[record]]
molecule = "Cc1cc(NS(=O)(=O)c2ccc(NC(=O)c3cccc4c(Nc5ccc(S(N)(=O)=O)cc5)c5ccccc5nc34)cc2)no1"
result = "> 100 µM"

[[record]]
molecule = "Oc1cc(-n2cccn2)c(O)cc1-n1cccn1"
result = "51.1 µM"


INPUT: Param item = COC(=O)C(=O)Cc1nc2ccccc2o1 ; retrieve measured TGI.
OUTPUT: > 100 µM

INPUT: Param item = Nc1nc(N)c(CCCCc2ccccc2)c(N)n1 ; retrieve measured TGI.
OUTPUT: > 100 µM

INPUT: Param item = CCOC(=O)c1c[nH]c2ccc3c(c2c1=O)S(=O)(=O)CC3 (tested in a mixture with another compound) ; retrieve measured TGI.
OUTPUT: > 100 µM

INPUT: Param item = CCOC(=O)/C(I)=C/c1cc(OC)c(OC)c(OC)c1 ; retrieve measured TGI.
OUTPUT: 19.3 µM

INPUT: Param item = CCOC(=O)C1Nc2ccccc2[C@H]2OCC[C@@H]12 (stereo partly drawn) ; retrieve measured TGI.
OUTPUT: > 100 µM

----------
System: COLO 205 colon
ASSAY_TEXT: NCI tumour cell line growth inhibition, 48 h
MEASURED_QUANTITY: TGI (µM)
Return type: number; implicit unit µM.

These solved cases illustrate the format of a correct answer.
[[record]]
structure_smiles = "COC(=O)c1cc(-c2ccc(OC)c(OC)c2)[nH]c1N/N=C/c1c(Cl)cccc1Cl"
numeric_readout = 4.95

[[record]]
structure_smiles = "N#CCN1C(=O)c2cc([N+](=O)[O-])cc3cc([N+](=O)[O-])cc(c23)C1=O"
numeric_readout = 36.6

[[record]]
structure_smiles = "CN1CCc2nc3sc(C(N)=O)c(N)c3c(-c3cccs3)c2C1"
numeric_readout = 3.66

[[record]]
structure_smiles = "COc1ccc(-c2[nH]c3ccccc3c2CCNS(=O)(=O)c2ccc(C)cc2)cc1"
numeric_readout = 4.03


INPUT: Param item = Oc1cc(-n2cccn2)c(O)cc1-n1cccn1 ; retrieve measured TGI.
OUTPUT: 37.9

----------
System: MALME-3M melanoma
ASSAY_TEXT: NCI tumour cell line growth inhibition, 48 h
This section presents compounds with their documented TGI values.

[[record]]
compound = "COc1cccc(Oc2ccccc2NC(=O)CNC(=O)c2cccc3ccccc23)c1"
measured_quantity = "TGI"
result = "> 25 µM"


INPUT: Field: TGI (MALME-3M melanoma). Entry: Clc1ccc2oc(CCc3ccccc3)nc2c1
OUTPUT: > 100 µM

INPUT: Field: TGI (MALME-3M melanoma). Entry: COc1cc(/C=C/c2ccc3c(Br)cc(Br)c(O)c3n2)ccc1O
OUTPUT: 18.4 µM

INPUT: Field: TGI (MALME-3M melanoma). Entry: CC(C)(C)c1cc2nc(c1)C(C(F)(F)F)(C(F)(F)F)OB(Br)OC2(C(F)(F)F)C(F)(F)F
OUTPUT: 4.42 µM

INPUT: Field: TGI (MALME-3M melanoma). Entry: O=c1[nH]nc(-c2ccccc2)n1O
OUTPUT: > 100 µM

INPUT: Field: TGI (MALME-3M melanoma). Entry: Cc1cc(NS(=O)(=O)c2ccc(NC(=O)c3cccc4c(Nc5ccc(S(N)(=O)=O)cc5)c5ccccc5nc34)cc2)no1
OUTPUT: > 100 µM

INPUT: Field: TGI (MALME-3M melanoma). Entry: CCOC(=O)c1c[nH]c2ccc3c(c2c1=O)S(=O)(=O)CC3 (tested in a mixture with another compound)
OUTPUT: > 100 µM

INPUT: Field: TGI (MALME-3M melanoma). Entry: CC1CC(C#N)=C2NCCN2C1=O (centres undefined)
OUTPUT: > 100 µM

INPUT: Field: TGI (MALME-3M melanoma). Entry: CC(C)/C(Cl)=N/OC(=O)Nc1ccc(Cl)c(Cl)c1
OUTPUT: 4.33 µM
